Numbers sourced from patent US4699928A.

Could you please report measured IC50 for the items listed next?
- System: MAO
- METHOD_DESCRIPTION: Inhibition of MAO in vitro, partially purified rat brain mitochondria, 14C p-tyramine substrate
- Type: biochemical
- SETUP_CONDITIONS: tested as hydrochloride salt
Number first, unit second.

List IC50 for every entry below, keeping the order given.
1. NC/C(=C/F)COc1ccccc1 [(Z)-2-phenoxymethyl-3-fluoroallylamine]
2. C#CCN(C)CCCOc1ccc(Cl)cc1Cl [clorgyline, reference compound]
3. C#CCN(C)Cc1ccccc1
4. NC/C(=C/F)CSc1ccccc1

Out:
["1000 nM", "10 nM", "2000 nM", "1000 nM"]

In: Name the recorded IC50 for NC/C(=C/F)COc1ccc(Cl)cc1Cl .
Out: 150 nM
